- TEST SYSTEM: IKBKB (human) (UniProt O14920)
- Sequence (O14920 whole entry, looked up): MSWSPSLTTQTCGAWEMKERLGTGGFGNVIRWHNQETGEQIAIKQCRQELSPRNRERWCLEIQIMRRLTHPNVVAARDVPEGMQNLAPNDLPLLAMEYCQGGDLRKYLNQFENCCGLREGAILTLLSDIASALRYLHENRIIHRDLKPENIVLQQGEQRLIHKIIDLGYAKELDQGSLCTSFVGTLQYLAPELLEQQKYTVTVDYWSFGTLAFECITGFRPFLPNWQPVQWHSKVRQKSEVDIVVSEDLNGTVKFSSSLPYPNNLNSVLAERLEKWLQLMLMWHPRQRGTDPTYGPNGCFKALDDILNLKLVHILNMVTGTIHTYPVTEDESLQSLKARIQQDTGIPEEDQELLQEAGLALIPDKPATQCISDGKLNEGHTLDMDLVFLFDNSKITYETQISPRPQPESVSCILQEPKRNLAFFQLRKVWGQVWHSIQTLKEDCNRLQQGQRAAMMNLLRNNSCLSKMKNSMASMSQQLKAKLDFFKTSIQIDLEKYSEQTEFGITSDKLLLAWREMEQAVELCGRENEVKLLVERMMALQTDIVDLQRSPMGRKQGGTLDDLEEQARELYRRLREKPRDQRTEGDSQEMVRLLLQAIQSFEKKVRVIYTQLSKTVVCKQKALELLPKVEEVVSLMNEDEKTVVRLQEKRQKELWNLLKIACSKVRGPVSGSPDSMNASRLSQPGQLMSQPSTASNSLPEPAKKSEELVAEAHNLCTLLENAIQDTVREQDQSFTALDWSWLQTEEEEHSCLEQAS
- TEST DETAILS: Caliper, Mobility shift assay off-chip
- CONDITION PARAMETERS: compound 0.02 µM
Recorded inhibition values for a group of compounds are listed next.
REPORTED PROPERTY: inhibition (%)

[[record]]
chemical_smiles = "CNC(=O)c1ccccc1Sc1ccc2c(/C=C/c3ccccn3)n[nH]c2c1"
reported_property = "inhibition"
endpoint_value = 3.1

[[record]]
chemical_smiles = "COc1cc2c(Oc3ccc4[nH]c(C)cc4c3F)ncnc2cc1OCCCN1CCCC1"
reported_property = "inhibition"
endpoint_value = -4

[[record]]
chemical_smiles = "CNC(=O)c1cc(Oc2ccc(NC(=O)Nc3ccc(Cl)c(C(F)(F)F)c3)cc2)ccn1"
reported_property = "inhibition"
endpoint_value = 0.9

[[record]]
chemical_smiles = "Cc1ccc(Nc2nccc(N(C)c3ccc4c(C)n(C)nc4c3)n2)cc1S(N)(=O)=O"
reported_property = "inhibition"
endpoint_value = -3.7

